Form field: self-splicing fitness (ln) (one value per entry).
- Procedure text: self-splicing fitness, log relative to wild type (ln ratio); higher = more splicing; Tetrahymena group I intron in knt gene, E. coli kanamycin selection, DiMSum; sequences stand for … in CUCUCU…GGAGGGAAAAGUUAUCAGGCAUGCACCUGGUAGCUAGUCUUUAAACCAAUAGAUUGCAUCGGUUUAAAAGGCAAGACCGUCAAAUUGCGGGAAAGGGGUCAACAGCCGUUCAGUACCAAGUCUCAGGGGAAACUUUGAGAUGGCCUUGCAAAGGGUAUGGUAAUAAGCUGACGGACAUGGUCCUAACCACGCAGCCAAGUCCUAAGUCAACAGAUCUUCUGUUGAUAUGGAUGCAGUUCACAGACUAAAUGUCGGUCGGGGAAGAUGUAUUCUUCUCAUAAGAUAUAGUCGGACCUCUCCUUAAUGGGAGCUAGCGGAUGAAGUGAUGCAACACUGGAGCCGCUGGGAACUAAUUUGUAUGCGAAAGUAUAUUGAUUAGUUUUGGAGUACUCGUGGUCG;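 also: selection with 25 µg/mL kanamycin versus none on LB agar overnight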
- Test settings: 37 °C
Assay endpoint: self-splicing fitness (ln)

{"Record sequence": "GGAAAGCAAUAUUACGGUAU", "Assay result": -1.31}
{"Record sequence": "UCGUAGCAAUAUUACGCUAA", "Assay result": -1.48}
{"Record sequence": "ACGUAGCAAUAUUACGCCGA", "Assay result": -0.566}
{"Record sequence": "CGGCAGCAAUAUUACGGAUA", "Assay result": -2.39}
{"Record sequence": "ACUGAGCAAUAUUACGUCUG", "Assay result": -2.43}
{"Record sequence": "UUAAAGCAAUAUUACGUGCG", "Assay result": -0.242}
{"Record sequence": "CGCCAGCAAUAUUACGCGCU", "Assay result": -2.52}
{"Record sequence": "CUACAGCAAUAUUACGGUAC", "Assay result": -1.13}
{"Record sequence": "AACAAGCAAUAUUACGCGGU", "Assay result": -2.03}
{"Record sequence": "ACGUAGCAAUAUUACGGUCA", "Assay result": 0.577}
{"Record sequence": "UUAUAGCAAUAUUACGGUUU", "Assay result": -1.09}
{"Record sequence": "UUAUAGCAAUAUUACGACUA", "Assay result": -0.299}
{"Record sequence": "UCAGAGCAAUAUUACGUAUU", "Assay result": -3.08}
{"Record sequence": "CCCCAGCAAUAUUACGCGCG", "Assay result": -2.97}
{"Record sequence": "UGAAAGCAAUAUUACGCUAA", "Assay result": -0.805}
{"Record sequence": "CGAGAGCAAUAUUACGUGCA", "Assay result": -3.2}
{"Record sequence": "UCCCAGCAAUAUUACGGGAA", "Assay result": -1.83}
{"Record sequence": "ACACAGCAAUAUUACGCGCC", "Assay result": -1.13}
{"Record sequence": "UGAUAGCAAUAUUACGGAGC", "Assay result": -3.25}
{"Record sequence": "UGGAAGCAAUAUUACGUCAU", "Assay result": -3.01}
{"Record sequence": "AACCAGCAAUAUUACGCGGA", "Assay result": -0.49}
{"Record sequence": "GUGAAGCAAUAUUACGAAUC", "Assay result": -0.964}
{"Record sequence": "AAACAGCAAUAUUACGAAGU", "Assay result": -2.21}
{"Record sequence": "ACUUAGCAAUAUUACGGCAA", "Assay result": -1.31}
{"Record sequence": "UCGCAGCAAUAUUACGUGGG", "Assay result": -2.53}
{"Record sequence": "UACAAGCAAUAUUACGGGUA", "Assay result": -0.839}
{"Record sequence": "CGGCAGCAAUAUUACGGCUA", "Assay result": 0.407}
{"Record sequence": "UCACAGCAAUAUUACGCCGG", "Assay result": 0.108}
{"Record sequence": "CCUCAGCAAUAUUACGUCGA", "Assay result": -2.28}
{"Record sequence": "ACGCAGCAAUAUUACGACGG", "Assay result": -0.191}
{"Record sequence": "AUUAAGCAAUAUUACGUAUU", "Assay result": -1.85}
{"Record sequence": "GGACAGCAAUAUUACGAAUC", "Assay result": 0.32}
{"Record sequence": "GGGGAGCAAUAUUACGAAGG", "Assay result": -1.44}
{"Record sequence": "UUCAAGCAAUAUUACGGUGU", "Assay result": -2.49}

====

- Procedure text: self-splicing fitness, log relative to wild type (ln ratio); higher = more splicing; Tetrahymena group I intron in knt gene, E. coli kanamycin selection, DiMSum; sequences stand for … in CUCUCU…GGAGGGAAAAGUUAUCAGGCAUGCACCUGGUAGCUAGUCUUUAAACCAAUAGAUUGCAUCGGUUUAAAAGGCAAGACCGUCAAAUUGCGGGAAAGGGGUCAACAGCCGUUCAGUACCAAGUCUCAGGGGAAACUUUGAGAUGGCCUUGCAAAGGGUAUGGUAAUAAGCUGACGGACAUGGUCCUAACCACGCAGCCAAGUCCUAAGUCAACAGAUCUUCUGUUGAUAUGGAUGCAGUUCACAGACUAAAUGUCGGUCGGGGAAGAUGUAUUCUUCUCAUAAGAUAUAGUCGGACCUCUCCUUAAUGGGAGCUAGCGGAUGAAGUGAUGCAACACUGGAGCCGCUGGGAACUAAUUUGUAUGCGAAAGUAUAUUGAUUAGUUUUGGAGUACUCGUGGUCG
- Test settings: 37 °C

{"Record sequence": "AAGAAGCAAUAUUACGUCUG", "self-splicing fitness (ln)": 0.0995}
{"Record sequence": "UAUCAGCAAUAUUACGUGCG", "self-splicing fitness (ln)": 0.327}
{"Record sequence": "CCCUAGCAAUAUUACGCUAC", "self-splicing fitness (ln)": -1.84}
{"Record sequence": "ACCGAGCAAUAUUACGAGUC", "self-splicing fitness (ln)": -3.25}
{"Record sequence": "ACCGAGCAAUAUUACGGCUG", "self-splicing fitness (ln)": -1.24}
{"Record sequence": "GAAUAGCAAUAUUACGAUUU", "self-splicing fitness (ln)": -0.649}
{"Record sequence": "AUGCAGCAAUAUUACGCCCG", "self-splicing fitness (ln)": -0.571}
{"Record sequence": "AUUGAGCAAUAUUACGCAUA", "self-splicing fitness (ln)": -2.47}
{"Record sequence": "ACUAAGCAAUAUUACGGGCU", "self-splicing fitness (ln)": -0.736}
{"Record sequence": "CGAUAGCAAUAUUACGAAAA", "self-splicing fitness (ln)": -2.7}
{"Record sequence": "GCAGAGCAAUAUUACGUGAG", "self-splicing fitness (ln)": -1.65}
{"Record sequence": "GUCCAGCAAUAUUACGGUAA", "self-splicing fitness (ln)": 0.647}
{"Record sequence": "GACGAGCAAUAUUACGAUGG", "self-splicing fitness (ln)": -3}
{"Record sequence": "AGCAAGCAAUAUUACGCUAA", "self-splicing fitness (ln)": -1.69}
{"Record sequence": "AGAUAGCAAUAUUACGAUGC", "self-splicing fitness (ln)": -0.736}
{"Record sequence": "CAUGAGCAAUAUUACGUUCU", "self-splicing fitness (ln)": -3.11}

====

- Procedure text: self-splicing fitness, log relative to wild type (ln ratio); higher = more splicing; Tetrahymena group I intron in knt gene, E. coli kanamycin selection, DiMSum; sequences stand for … in CUCUCU…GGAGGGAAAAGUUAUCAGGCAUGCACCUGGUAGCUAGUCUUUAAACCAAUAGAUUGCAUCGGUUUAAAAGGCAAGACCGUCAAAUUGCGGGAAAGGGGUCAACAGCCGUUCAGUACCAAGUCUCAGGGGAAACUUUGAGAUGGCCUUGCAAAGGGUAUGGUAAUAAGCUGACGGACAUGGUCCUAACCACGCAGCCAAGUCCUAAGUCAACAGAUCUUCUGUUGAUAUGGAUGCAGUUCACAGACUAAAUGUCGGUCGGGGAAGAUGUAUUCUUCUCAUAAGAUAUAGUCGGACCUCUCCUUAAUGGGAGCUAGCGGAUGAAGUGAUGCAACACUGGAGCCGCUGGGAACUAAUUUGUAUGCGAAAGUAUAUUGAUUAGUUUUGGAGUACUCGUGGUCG
- Test settings: 37 °C
We use -2 as the dividing line for self-splicing fitness (ln): on or above the line is True, below is False.

{"Record sequence": "CCAUAGCAAUAUUACGCUUC", "Label class": "False"}
{"Record sequence": "AACUAGCAAUAUUACGUUGC", "Label class": "True"}
{"Record sequence": "CACUAGCAAUAUUACGAAGC", "Label class": "False"}
{"Record sequence": "AUCGAGCAAUAUUACGUGUC", "Label class": "True"}
{"Record sequence": "ACAGAGCAAUAUUACGGUAG", "Label class": "False"}
{"Record sequence": "CCAUAGCAAUAUUACGUUGG", "Label class": "False"}
{"Record sequence": "UCUAAGCAAUAUUACGCGGG", "Label class": "True"}
{"Record sequence": "UUACAGCAAUAUUACGCGGA", "Label class": "True"}
{"Record sequence": "GGCCAGCAAUAUUACGUUUC", "Label class": "True"}
{"Record sequence": "GACGAGCAAUAUUACGAGUA", "Label class": "False"}
{"Record sequence": "CGUUAGCAAUAUUACGAACU", "Label class": "True"}
{"Record sequence": "AUCGAGCAAUAUUACGGAAC", "Label class": "False"}
{"Record sequence": "CGGUAGCAAUAUUACGCACA", "Label class": "True"}
{"Record sequence": "CGUGAGCAAUAUUACGACCU", "Label class": "True"}
{"Record sequence": "CGGCAGCAAUAUUACGUUUG", "Label class": "True"}
{"Record sequence": "UGCCAGCAAUAUUACGGUGG", "Label class": "False"}
{"Record sequence": "CUCAAGCAAUAUUACGAUUG", "Label class": "False"}
{"Record sequence": "CCUGAGCAAUAUUACGUCGA", "Label class": "False"}
{"Record sequence": "AAGGAGCAAUAUUACGCGCC", "Label class": "True"}
{"Record sequence": "CGGAAGCAAUAUUACGCGUU", "Label class": "False"}
{"Record sequence": "AAUAAGCAAUAUUACGGAGG", "Label class": "True"}
{"Record sequence": "AAAUAGCAAUAUUACGUGGC", "Label class": "True"}
{"Record sequence": "CCAGAGCAAUAUUACGCUAG", "Label class": "False"}
{"Record sequence": "GGUGAGCAAUAUUACGUGGG", "Label class": "False"}
{"Record sequence": "GAACAGCAAUAUUACGUUUU", "Label class": "False"}
{"Record sequence": "UCUAAGCAAUAUUACGGCUA", "Label class": "False"}
{"Record sequence": "AUGCAGCAAUAUUACGGUCG", "Label class": "True"}
{"Record sequence": "AGGAAGCAAUAUUACGCGCG", "Label class": "True"}
{"Record sequence": "CGAUAGCAAUAUUACGGACC", "Label class": "True"}
{"Record sequence": "UUGGAGCAAUAUUACGCAGA", "Label class": "True"}
{"Record sequence": "GCGCAGCAAUAUUACGAGGG", "Label class": "True"}
{"Record sequence": "AUCUAGCAAUAUUACGAGUC", "Label class": "False"}
{"Record sequence": "GAUCAGCAAUAUUACGUCUU", "Label class": "True"}
